# Target Entity: human FGFR1c + KLB receptor complex on HEK293 iLite FGF21 reporter cells (human, UniProt P11362 22-822; Q86Z14 1-1044)
# Sequence (P11362 22-822, chain 1 of 2): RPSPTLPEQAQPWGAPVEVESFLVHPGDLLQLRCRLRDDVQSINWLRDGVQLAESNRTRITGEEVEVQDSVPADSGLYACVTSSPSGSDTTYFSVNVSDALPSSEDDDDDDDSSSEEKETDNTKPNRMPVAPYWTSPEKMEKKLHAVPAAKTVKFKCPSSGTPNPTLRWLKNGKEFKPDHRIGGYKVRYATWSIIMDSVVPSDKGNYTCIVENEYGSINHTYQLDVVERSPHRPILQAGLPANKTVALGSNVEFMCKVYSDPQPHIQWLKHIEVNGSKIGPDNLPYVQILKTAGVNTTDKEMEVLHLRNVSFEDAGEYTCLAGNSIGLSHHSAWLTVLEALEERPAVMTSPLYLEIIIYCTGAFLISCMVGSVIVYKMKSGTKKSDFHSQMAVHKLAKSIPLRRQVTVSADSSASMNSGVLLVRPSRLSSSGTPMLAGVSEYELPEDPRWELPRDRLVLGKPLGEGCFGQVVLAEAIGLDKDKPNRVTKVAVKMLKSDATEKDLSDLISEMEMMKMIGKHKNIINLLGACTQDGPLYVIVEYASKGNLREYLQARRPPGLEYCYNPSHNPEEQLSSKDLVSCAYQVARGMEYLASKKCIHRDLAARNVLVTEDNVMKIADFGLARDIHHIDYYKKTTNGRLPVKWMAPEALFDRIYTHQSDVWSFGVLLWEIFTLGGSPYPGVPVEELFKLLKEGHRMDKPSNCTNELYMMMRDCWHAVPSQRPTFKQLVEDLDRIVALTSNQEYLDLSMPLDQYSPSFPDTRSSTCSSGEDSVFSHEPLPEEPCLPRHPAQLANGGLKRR
# Sequence (Q86Z14 whole entry, chain 2 of 2): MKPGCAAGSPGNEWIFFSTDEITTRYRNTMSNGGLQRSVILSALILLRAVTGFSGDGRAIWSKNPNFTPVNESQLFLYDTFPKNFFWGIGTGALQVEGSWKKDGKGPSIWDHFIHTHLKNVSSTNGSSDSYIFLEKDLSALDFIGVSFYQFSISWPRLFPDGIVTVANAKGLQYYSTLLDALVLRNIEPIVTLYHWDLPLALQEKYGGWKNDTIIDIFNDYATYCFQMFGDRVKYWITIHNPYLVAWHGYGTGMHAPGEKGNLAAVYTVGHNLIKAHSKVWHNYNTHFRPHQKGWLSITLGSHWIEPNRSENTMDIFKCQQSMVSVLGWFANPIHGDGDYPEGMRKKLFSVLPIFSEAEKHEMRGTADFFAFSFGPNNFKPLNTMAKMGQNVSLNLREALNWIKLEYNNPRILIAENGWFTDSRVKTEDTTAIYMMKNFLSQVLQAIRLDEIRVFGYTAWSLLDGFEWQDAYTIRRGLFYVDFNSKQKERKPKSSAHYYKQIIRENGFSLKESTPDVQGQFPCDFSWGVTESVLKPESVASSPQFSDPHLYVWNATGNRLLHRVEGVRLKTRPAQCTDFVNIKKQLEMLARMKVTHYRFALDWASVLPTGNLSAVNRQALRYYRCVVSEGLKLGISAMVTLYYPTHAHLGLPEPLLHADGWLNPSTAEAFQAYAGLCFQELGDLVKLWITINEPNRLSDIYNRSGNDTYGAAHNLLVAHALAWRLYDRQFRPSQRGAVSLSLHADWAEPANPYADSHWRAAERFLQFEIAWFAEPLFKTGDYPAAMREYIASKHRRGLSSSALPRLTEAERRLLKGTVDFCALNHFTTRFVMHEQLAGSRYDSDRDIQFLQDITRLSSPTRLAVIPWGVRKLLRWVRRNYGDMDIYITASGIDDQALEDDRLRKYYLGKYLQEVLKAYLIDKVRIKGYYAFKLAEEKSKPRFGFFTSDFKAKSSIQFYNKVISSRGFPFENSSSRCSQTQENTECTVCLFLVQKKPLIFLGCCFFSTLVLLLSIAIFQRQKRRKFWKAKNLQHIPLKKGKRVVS
# Experiment Notes: cell-based or functional assay
Assign EC50 to each entry below.
Please state the figure in nM; there is no need to write the unit.

Record Ab0295 (antibody, IgG4, V domains shown, IgG4 PE) VH: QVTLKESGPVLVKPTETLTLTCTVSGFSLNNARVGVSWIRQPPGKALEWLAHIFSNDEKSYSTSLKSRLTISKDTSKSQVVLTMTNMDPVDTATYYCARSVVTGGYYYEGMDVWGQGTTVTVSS VL: SYVLTQPPSVSVAPGQTARITCGGSNIGSESVHWYQQKPGQAPVLVVYYDSDRPSGIPERFSGSNSGNTATLTISRVEAGDEADYYCQVWDGNSDHVVFGGGTKLTVLG . Reported EC50: 0.07

Record Ab0203 (antibody, IgG4, V domains shown, IgG4 PE) VH: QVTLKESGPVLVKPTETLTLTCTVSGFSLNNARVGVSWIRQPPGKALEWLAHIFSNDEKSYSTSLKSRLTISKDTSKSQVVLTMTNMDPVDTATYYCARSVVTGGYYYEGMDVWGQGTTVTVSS VL: SYVLTQPPSVSVAPGQTARITCGGNNIGSESVHWYQQKPGQAPVLVVYDESDRPSGIPERFSGSNSGNTATLTISRVEAGDEADYYCQVWDGNSDHVVFGGGTKLTVLG . Reported EC50: 0.05
